This collection of values is drawn from the supplement of paper PMC6555819.

# System: LXRb:RXRa (NR concentration 270 nM, RXRa partner concentration 90 nM)
# assay_explanation: PBM binding z-score (relative to random genomic background probes); higher = stronger binding; sequences stand for … in GC…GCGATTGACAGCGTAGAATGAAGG
Label fulfilled when PBM binding z-score is at or above 1; otherwise label not fulfilled.

Examples from the recorded data:
{"columns": ["sequence_string", "label_class"],
 "data": [
  ["CAAACTAGGTCAAAGGACAAAGTCGAGCCAACCA", "fulfilled"],
  ["TGAATGAGGTTAAACATCAGGGAACGTGGCGTCG", "fulfilled"],
  ["CCGACTGGGGCAGAAAGGTTACCACACCATCCGG", "not fulfilled"],
  ["CTCGAAAGGTCGGTCGAGGTGAGTATACGGATAA", "fulfilled"],
  ["GCAGACAGGTGAAACGCAGGTGACTCAGGGTGGC", "not fulfilled"],
  ["TCTTGTAGATCAAGCAGGTTAAGGAAGCCTGAGT", "not fulfilled"]
]}

Can ACTAGCAGGCCAAGTTTGGGTCACTCAGACAAAG be said to have PBM binding z-score at or above 1?
not fulfilled

Identify whether the reported PBM binding z-score of the following sequence is 1 or greater: ATCGAAAGATCGAGGTGAGTATAGAGAAAGGGAA
not fulfilled

Textbook exercise: given the entry TCATATAGGTGAAGGTGAAAGTCGAACGATATGA , state whether its PBM binding z-score is greater than or equal to 1.
not fulfilled

Record ATCTCTAGGTAACCAAGTTCAGAGAATGCCGAAC ; criterion: PBM binding z-score no lower than 1. Met?
not fulfilled

I'd appreciate it if you could say whether CCGACTGGGGCTGAAAGGTTACCATACCATCCGG has PBM binding z-score at least equal to 1.
not fulfilled

Decide: PBM binding z-score of CCTGGTAGGTCAATGGTCAGCTAAAGCAGCTCGC >= 1?
fulfilled

Test whether the sequence CAGCCTAGGTCAGGGCGAGTATAGGAGGAACGTT records PBM binding z-score of 1 or higher.
not fulfilled

Check this sequence for PBM binding z-score at or above 1: CCTTACGGGTCACTGACAGGTTATAGGATTTGGA
fulfilled

Does ACTAGCATGCCAAGGGTCACTCAAGATTAGTCCG have a reported PBM binding z-score of at least 1?
fulfilled

Can ATCTCTAGGTAAAGATAGATCAGTGAATGCAAAT be said to have PBM binding z-score at or above 1?
not fulfilled

Is the recorded value of PBM binding z-score equal to or greater than 1 for this sequence? CCGAGTTGGTCAGGAGGTCACACACCGGATATGA
fulfilled

I'd appreciate it if you could say whether CCTGCTAGGTCATGGTCCGCTAATCTACAGTATG has PBM binding z-score at least equal to 1.
fulfilled
